test: qHTS assay to identify small molecule agonists of the retinoic acid receptor (RAR) signaling pathway (AID 1159553)
assay-context: C3RL4 RARE luciferase reporter, agonist, 6 h; series mostly up to 73.3 µM
From the text: National Center for Advancing Translational Sciences [NCATS] NIH Chemical Genomics Center [NCGC] U.S. Environmental Protection Agency [EPA] National Institutes of Environmental Health Sciences [NIEHS] National Toxicology Program [NTP] […]
Inconclusive results are not listed. Calls of active or inactive are those of the source. Calls come from the whole dose curve; as a rule, active = well fitted activation curve with a large enough effect in the repeat runs; inconclusive = weak or mixed curves, or effect the other way; inactive = no such curve, though single readings can be large or run the other way.
Entry note: the call must match one of active, inactive

[[record]]
compound = "O=C1NC(=O)c2cccc3cccc1c23"
classification = "inactive"

[[record]]
compound = "Cc1cc([N+](=O)[O-])ccc1N"
classification = "inactive"

[[record]]
compound = "COc1ccc(-c2cc(=S)ss2)cc1"
classification = "active"

[[record]]
compound = "O=C1CC[C@@H](C(=O)O)N1"
classification = "inactive"

[[record]]
compound = "CCCCC(CC)COS(=O)(=O)O (stereo not drawn)"
classification = "inactive"

[[record]]
compound = "O=S(=O)(Cl)c1c(Cl)cccc1Cl"
classification = "inactive"

[[record]]
compound = "CCc1ccc(C)cc1"
classification = "inactive"

[[record]]
compound = "CCCCCCCC(=O)OCCCCCC"
classification = "inactive"

[[record]]
compound = "COc1ccc(/C=C/C(=O)c2ccc(OC)cc2OC)cc1"
classification = "active"

[[record]]
compound = "O=C(O)CCC(=O)OC[C@@H](NC(=O)C(Cl)Cl)[C@H](O)c1ccc([N+](=O)[O-])cc1"
classification = "inactive"


IN: Test call for this compound, please: CCCCCCCCCCCCCOC(=O)CCSCCC(=O)OCCCCCCCCCCCCC
OUT: inactive

IN: Which outcome did this test record for the compound CN1C(CSCC(F)(F)F)Nc2cc(Cl)c(S(N)(=O)=O)cc2S1(=O)=O (stereo not drawn) ?
OUT: inactive

IN: How did this test come out for O=[N+]([O-])c1ccc2ncccc2c1 ?
OUT: inactive

###

target-under-test: Cytochrome P450 2D6 (Homo sapiens)
test: Cytochrome P450 Family 2 Subfamily D Member 6 (CYP2D6) small molecule antagonists: luciferase reporter qHTS assay (AID 1671196); note: nearly all actives have a fitted effect of over 50% in size
assay-context: P450-Glo CYP2D6 enzyme assay, luciferin luminescence, 1 h; series mostly up to 115 µM
Inconclusive results are not listed. Active and inactive are the calls of the source. The call rests on the fitted dose curve; in most records, active means well fitted inhibition curve with a large enough effect in the repeat runs; inconclusive means weak or mixed curves; inactive means no such curve, though single readings can be large or run the other way.
Can you answer with just one of these options? active, inactive

[[record]]
smiles_record = "Nc1c(Cl)cc(Cl)cc1[N+](=O)[O-]"
classification = "inactive"


IN: Hello, I am checking results. What call was entered for CCN(Cc1cccc(S(=O)(=O)O)c1)c1ccc(C(=C2C=CC(=[N+](CC)Cc3cccc(S(=O)(=O)O)c3)C=C2)c2ccccc2S(=O)(=O)[O-])cc1 ?
OUT: active

IN: Given O=C(O)CCCc1c[nH]c2ccccc12 , state the outcome it received in this test.
OUT: inactive

###

target-under-test: Nuclear receptor subfamily 1 group I member 3 (Homo sapiens) (UniProt Q14994)
Sequence (Q14994 whole entry, looked up): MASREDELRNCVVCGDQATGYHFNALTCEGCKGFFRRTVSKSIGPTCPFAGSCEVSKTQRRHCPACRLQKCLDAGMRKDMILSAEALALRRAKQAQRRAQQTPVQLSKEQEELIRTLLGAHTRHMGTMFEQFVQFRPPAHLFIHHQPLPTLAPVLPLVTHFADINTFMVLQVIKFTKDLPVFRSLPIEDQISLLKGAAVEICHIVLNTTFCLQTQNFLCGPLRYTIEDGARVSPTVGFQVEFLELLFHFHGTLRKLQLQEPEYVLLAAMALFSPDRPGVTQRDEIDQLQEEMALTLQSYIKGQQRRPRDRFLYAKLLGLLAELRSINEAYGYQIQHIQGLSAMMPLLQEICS
test: qHTS assay to identify small molecule agonists of the constitutive androstane receptor (CAR) signaling pathway (AID 1224839);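 note: HepG2 cells stably carrying human CAR and a CYP2B6 luciferase reporter; nearly all actives have a fitted effect of over 15% in size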
assay-context: HepG2 hCAR CYP2B6-luciferase, agonist mode, 24 h; series mostly up to 92.4 µM
Text: National Center for Advancing Translational Sciences [NCATS] NIH Chemical Genomics Center [NCGC] U.S. Environmental Protection Agency [EPA] National Institutes of Environmental Health Sciences [NIEHS] National Toxicology Program [NTP] […] Assay Protocol Summary: A double-stable (hCAR and CYP2B6-2.2kb) transfected cell line, derived from human hepatoma (HepG2) cells, was utilized for the duration of the quantitative high-throughput screens. […]
Results filed as inconclusive are left out. Activity calls are given as the source filed them. The call rests on the fitted dose curve; in most records, active means well fitted activation curve with a large enough effect in the repeat runs; inconclusive means weak or mixed curves; inactive means no such curve, though single readings can be large or run the other way.
# valid calls are T for active, F for inactive; nothing else

[[record]]
compound = "Oc1cccc2[nH]ccc12"
classification = "F"

[[record]]
compound = "Cc1ccccc1S(N)(=O)=O"
classification = "F"

[[record]]
compound = "O=C1CC[C@@H](C(=O)O)N1"
classification = "F"

[[record]]
compound = "CCCCCCCC(=O)Oc1c(Br)cc(C#N)cc1Br"
classification = "F"

[[record]]
compound = "CCOC(=O)N1CCC(Nc2ccc(Cl)cc2N)CC1"
classification = "F"


IN: What outcome does the record of this test show for C1CCCCC1 ?
OUT: F

IN: Name the outcome recorded for O=C(O)c1cccc(C[C@@H]2COc3ccc(OCc4nc5cc(F)ccc5s4)cc3[C@@H]2O)c1 in the assay.
OUT: F

IN: Dear colleague, could you share the recorded outcome for CC(=O)OCC1=C(C(=O)O)N2C(=O)[C@@H](NC(=O)CSc3ccncc3)[C@H]2SC1 when you have a moment?
OUT: F

IN: # lookup: test call for CSSc1ccoc1C
OUT: F

IN: Fill in: this test's call for CN(C)CC/C=C1\c2ccccc2Sc2ccc(Cl)cc21 is ___
OUT: F

###

test: qHTS assay to identify small molecule antagonists of the estrogen related receptor (ERR) signaling pathway from Tox21 library - cell viability counter screen (AID 1224834); note: nearly all actives have a fitted effect of over 30% in size
assay-context: ERR reporter cells viability, CellTiter-Fluor, 17.5 h; series mostly up to 92.4 µM
Description: National Center for Advancing Translational Sciences [NCATS] NIH Chemical Genomics Center [NCGC] U.S. Environmental Protection Agency [EPA] National Institutes of Environmental Health Sciences [NIEHS] National Toxicology Program [NTP] […] The ERR cells were dispensed at 2,000 cells/5 ul/well in 1536-well white plates using a Multidrop dispenser. […] After 30-minute incubation at 37 C/5% CO2, the fluorescence intensity in the plates was measured using a ViewLux plate reader.
Inconclusive results are not listed. Calls of active or inactive are those of the source. Calls follow the shape of the dose curve; as a rule, active = well fitted cell-killing curve with a large enough effect in the repeat runs; inconclusive = weak or mixed curves; inactive = flat fitted curve, though single readings scatter.
parameter: outcome

[[record]]
smiles_record = "NC(=O)CCCCC(N)=O"
result = "inactive"

[[record]]
smiles_record = "CC(=O)c1ccc[nH]1"
result = "inactive"

[[record]]
smiles_record = "ClC1=C(Cl)C1(Cl)Cl"
result = "inactive"


###

test: qHTS assay for identifying genotoxic compounds that show differential cytotoxicity against isogenic chicken DT40 cell lines with known DNA damage response pathways - Rev3 mutant cell line (AID 743014); note: nearly all actives have a fitted effect of over 55% in size; note: potency is the fitted concentration of half-maximal effect
assay-context: chicken DT40 Rev3-/- viability, CellTiter-Glo, 40 h; series mostly up to 68.4 µM
Results filed as inconclusive are left out. Active and inactive are the calls of the source. Calls follow the shape of the dose curve; as a rule, active = well fitted cell-killing curve with a large enough effect in the repeat runs; inconclusive = weak or mixed curves, or effect the other way; inactive = no such curve, though single readings can be large or run the other way.
parameter: Potency

See these solved cases before continuing.
[[record]]
compound = "O=C(O)CNC(=O)c1ccccc1I"
result = "inactive"

[[record]]
compound = "CC12CC3CC(C)(C1)CC(N)(C3)C2"
result = "29.8 µM (active)"

[[record]]
compound = "CCN(CC)CCOc1ccccc1C(=O)CCc1ccccc1"
result = "26.6 µM (active)"

[[record]]
compound = "Cc1ccc(NC(=O)N(C)C)cc1NC(=O)N(C)C"
result = "inactive"

[[record]]
compound = "CCCCCc1ccco1"
result = "44.7 µM (active)"


For each of the compounds below, state Potency.
1. O=c1[nH][nH]c(=O)c2cc([N+](=O)[O-])ccc12
2. CCCCCCCCCCCCCOC(=O)CCSCCC(=O)OCCCCCCCCCCCCC
3. CO[C@@H]1[C@@H](OC)[C@H](C)[C@@](O)(CC(=O)O)O[C@H]1[C@H](C)[C@H]1O[C@@]2(CC[C@@](C)([C@H]3CC[C@@](C)([C@@H]4O[C@@H]([C@H]5O[C@](C)(O)[C@H](C)C[C@@H]5C)C[C@@H]4OC4C[C@H](OC)[C@@H](OC)[C@H](C)O4)O3)O2)C[C@H](O)[C@H]1C (some centres undefined)
4. Cc1ccc(N(CCO)CCO)cc1
5. C=CCOC(=O)COCCC(C)C
6. COc1ccc(CCN(C)CCCN2CCc3cc(OC)c(OC)cc3CC2=O)cc1OC
7. CC(=O)Oc1cccc(O)c1

OUT:
["inactive", "inactive", "0.15 µM (active)", "inactive", "inactive", "inactive", "inactive"]

Please state Potency for every compound in the list that follows.
1. OCC(CO)n1cnc(-c2ccc(F)cc2)c1-c1ccnc(Oc2ccccc2)n1
2. COC(OC)OC

OUT:
1: 68.5 µM (active); 2: inactive

Hi there! I need Potency for each item below, if you can.
1. Cc1ccccc1S(N)(=O)=O
2. CC(=O)OCCC1CCCCC1
3. CC1CCCO1 (centres undefined)
4. O=C(O)c1cc(Cl)cc(Cl)c1O
5. Nc1ccc(N=Nc2ccc(N)cc2)cc1

OUT:
inactive
inactive
inactive
inactive
inactive

###

test: qHTS assay for small molecule disruptors of the mitochondrial membrane potential (AID 720635); note: potency is the fitted concentration of half-maximal effect
assay-context: HepG2 mitochondrial membrane potential, Mito-MPS dye ratio; series mostly up to 83.2 µM
Excerpt: U.S. Tox21 Program National Center for Advancing Translational Sciences [NCATS] NIH Chemical Genomics Center [NCGC] U.S. Environmental Protection Agency [EPA] National Institutes of Environmental Health Sciences [NIEHS] National Toxicology Program [NTP] U.S. Food and Drug Administration [FDA] […] The dye accumulates in the mitochondria of healthy cells as aggregates, with red fluorescence. […]
Results filed as inconclusive are left out. The source made the active and inactive calls. Calls come from the whole dose curve; as a rule, active = well fitted inhibition curve with a large enough effect in the signal ratio in the repeat runs; inconclusive = weak or mixed curves, or effect the other way; inactive = flat fitted curve, though single readings scatter; the % refers to the signal ratio.
parameter: Potency

[[record]]
compound = "CC12CC3CC(C)(C1)CC(N)(C3)C2"
parameter = "Potency"
result = "inactive"

[[record]]
compound = "CC(C)(O)c1coc(S(=O)(=O)NC(=O)Nc2c3c(cc4c2CCC4)CCC3)c1"
parameter = "Potency"
result = "inactive"

[[record]]
compound = "CC(=O)NCCO"
parameter = "Potency"
result = "inactive"

[[record]]
compound = "FC(F)(F)C(F)(F)C(F)(F)C(F)(F)CCI"
parameter = "Potency"
result = "inactive"


Return reported Potency values for all items listed beneath this line.
1. CC1CCCC(=O)C1=O (stereo not given)
2. O=C(O)CCC(=O)OC[C@@H](NC(=O)C(Cl)Cl)[C@H](O)c1ccc([N+](=O)[O-])cc1
3. CNC1CCCN(c2c(F)cc3c(=O)c(C(=O)O)cn(C4CC4)c3c2OC)C1 (stereo not given)

OUT:
inactive
inactive
inactive

Dear colleague, could you please provide Potency for the compounds listed below?
1. CCC(=O)OCc1ccc(OC)cc1
2. COC(OC)OC
3. O=C(/C=C/c1ccc([N+](=O)[O-])cc1)c1ccccc1

OUT:
1. inactive
2. inactive
3. 30.7 µM (active)

Where these numbers come from: PubChem BioAssay (Tox21)
